Could you please report measured Number DE Genes for the items listed next?
Tested on: E. coli MG1655
Format: cell-based
Conditions: high concentration; false discovery rate below 1%
Text: RNA-Seq results for promoter activation in E. coli MG1655 in response to single and multiple toxin exposures at low and high concentrations: Our analysis of the sequencing data from RNA-Seq experiments to determine candidate genes that are induced upon toxin exposure consisted of three main tasks: sequence alignment, quantification of gene expression, and identification of differentially expressed genes. Sequence alignment: Reads were aligned to the reference E. coli K-12 substr. […]
One number for each entry.

Past entries and their recorded results:
INSERT INTO results (molecule, property_label, measured) VALUES
  ('[Pb]', 'Number DE Genes', 489),
  ('[Fe]', 'Number DE Genes', 70);

Provide reported Number DE Genes for each item, in the same order as listed.
1. [Cd]
2. [Cu]
3. [Cr+6]
4. [Co]
5. CCOC(=O)CC(SP(=S)(OC)OC)C(=O)OCC (stereo not shown)
6. [Zn]
7. [Ni]

Solution:
1. 38
2. 77
3. 377
4. 1274
5. 41
6. 596
7. 95

Problem: Answer with the recorded Number DE Genes of [As] only.
Solution: 14
